A set of compounds tested on FGFR1 (Homo sapiens, UniProt P11362), with measured IC50:

COc1cc(Nc2ncnc(Nc3ccc(OCc4ccccc4)cc3)n2)cc(OC)c1OC [Compound 926] | 0.871 to 5.22 µM

Prompt line: For the compound COc1cc(Nc2ncnc(Nc3nc4ccccc4n3C)n2)cc(OC)c1OC [Compound 938] , give its reported IC50.
Response line: 0.982 to 5.89 µM

Prompt line: Look up and report measured IC50 for this entry: COc1ccc(Nc2ncnc(Nc3ccc(N(C)C)cc3)n2)cc1OC [Compound 114]
Response line: > 12.3 µM

Prompt line: Give IC50 for the following compound: COc1cccc(Nc2ncnc(Nc3cc(OC)c(OC)c(OC)c3)n2)c1 [Compound 87]
Response line: 6.26 to 9.13 µM

Prompt line: Indicate its recorded IC50; the compound in question is COc1cc(Nc2ncnc(-n3c(N)nc4ccccc43)n2)ccc1OCCn1ccnn1 [Compound 324]
Response line: < 0.9 µM

---

Molecular target: Zap-70 (Homo sapiens)
Construct: Kinases are expressed as either kinase domains or full length constructs; made in house
Test: Kinase inhibition assay (33P transfer), Zap-70
Type: biochemical
Details: Table 3, class symbols; read-out: Zap-1
measuredParameter: IC50

CCOc1ccc(Nc2ncnc(Nc3cc(-c4ccc(C(=O)OC)cc4)n[nH]3)n2)cc1 | > 10.4 µM
COc1cc(Nc2ncnc(Nc3ccc(OCCO)cc3)n2)cc(OC)c1OC | > 10.9 µM
COc1cc(Nc2ncnc(-c3cccnc3NCc3cccc4ccccc34)n2)cc(OC)c1OC | > 9.1 µM
COc1cc(CNc2ncnc(Nc3cc(-c4ccco4)n[nH]3)n2)cc(OC)c1OC | > 10.6 µM
COc1cc(Nc2ncnc(-c3cccnc3NC(C)C)n2)ccc1NC(=O)CCCN1CCNCC1 | > 8.9 µM

Prompt line: Look up and report measured IC50 for this entry: c1ccc(CNc2nc3ccccc3n2-c2ncnc(Nc3cccc(Cn4ccnn4)c3)n2)cc1
Response line: > 9.48 µM

Prompt line: For COC(=O)c1ccc(-c2cc(Nc3ncnc(Nc4cccc(S(=O)(=O)O)c4)n3)[nH]n2)cc1 , write its IC50.
Response line: > 9.63 µM

Prompt line: Determine its reported IC50: COc1ccc(Nc2ncnc(Nc3cc(Cl)cc(Cl)c3)n2)cc1OC
Response line: > 11.5 µM

---

Target: AKT (Homo sapiens)
Construct: Kinases are expressed as either kinase domains or full length constructs; made in house
Sequence (Q9Y243 whole entry, the tested form may be a part): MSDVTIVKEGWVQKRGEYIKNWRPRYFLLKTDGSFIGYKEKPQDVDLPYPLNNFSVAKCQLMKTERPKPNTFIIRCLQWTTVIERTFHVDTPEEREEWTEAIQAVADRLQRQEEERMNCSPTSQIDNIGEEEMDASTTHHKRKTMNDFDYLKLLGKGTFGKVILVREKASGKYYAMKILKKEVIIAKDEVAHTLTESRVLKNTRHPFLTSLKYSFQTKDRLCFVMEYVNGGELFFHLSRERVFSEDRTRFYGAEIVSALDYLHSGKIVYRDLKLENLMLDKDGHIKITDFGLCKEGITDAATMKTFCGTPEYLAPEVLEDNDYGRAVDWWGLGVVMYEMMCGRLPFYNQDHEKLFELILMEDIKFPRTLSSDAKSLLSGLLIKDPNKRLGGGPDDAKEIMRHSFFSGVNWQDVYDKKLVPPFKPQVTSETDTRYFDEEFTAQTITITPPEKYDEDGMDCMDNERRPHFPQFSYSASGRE
Experiment: Kinase inhibition assay (33P transfer), AKT
Type: biochemical
Details: Table 2, kinase inhibition class; read-out: AKT3-1
pIC50: −log10 of the molar value.
measuredParameter: pIC50

In the examples that follow, each entry is paired with its recorded pIC50.
COc1cc(Nc2ncnc(-n3c(N)nc4ccccc43)n2)cc(OC)c1OC | < 4.94
N#CCc1ccc(Nc2ncnc(Nc3ccc4c(cnn4Cc4ccccc4)c3)n2)cc1 | 4.98 to 5.09
O=c1[nH]c2ccccc2n1-c1ncnc(Nc2cc(Cl)cc(Cl)c2)n1 | < 4.92

Prompt line: Specify reported pIC50 for the compound shown: COc1cc(Nc2ncnc(-n3c(NC4c5ccccc5CC4O)nc4ccccc43)n2)cc(OC)c1OC (stereo not shown)
Response line: < 5.07

---

A short record of IC50 observed with UniProt:P17948 follows.
Sequence (P17948 27-1338, species assumed): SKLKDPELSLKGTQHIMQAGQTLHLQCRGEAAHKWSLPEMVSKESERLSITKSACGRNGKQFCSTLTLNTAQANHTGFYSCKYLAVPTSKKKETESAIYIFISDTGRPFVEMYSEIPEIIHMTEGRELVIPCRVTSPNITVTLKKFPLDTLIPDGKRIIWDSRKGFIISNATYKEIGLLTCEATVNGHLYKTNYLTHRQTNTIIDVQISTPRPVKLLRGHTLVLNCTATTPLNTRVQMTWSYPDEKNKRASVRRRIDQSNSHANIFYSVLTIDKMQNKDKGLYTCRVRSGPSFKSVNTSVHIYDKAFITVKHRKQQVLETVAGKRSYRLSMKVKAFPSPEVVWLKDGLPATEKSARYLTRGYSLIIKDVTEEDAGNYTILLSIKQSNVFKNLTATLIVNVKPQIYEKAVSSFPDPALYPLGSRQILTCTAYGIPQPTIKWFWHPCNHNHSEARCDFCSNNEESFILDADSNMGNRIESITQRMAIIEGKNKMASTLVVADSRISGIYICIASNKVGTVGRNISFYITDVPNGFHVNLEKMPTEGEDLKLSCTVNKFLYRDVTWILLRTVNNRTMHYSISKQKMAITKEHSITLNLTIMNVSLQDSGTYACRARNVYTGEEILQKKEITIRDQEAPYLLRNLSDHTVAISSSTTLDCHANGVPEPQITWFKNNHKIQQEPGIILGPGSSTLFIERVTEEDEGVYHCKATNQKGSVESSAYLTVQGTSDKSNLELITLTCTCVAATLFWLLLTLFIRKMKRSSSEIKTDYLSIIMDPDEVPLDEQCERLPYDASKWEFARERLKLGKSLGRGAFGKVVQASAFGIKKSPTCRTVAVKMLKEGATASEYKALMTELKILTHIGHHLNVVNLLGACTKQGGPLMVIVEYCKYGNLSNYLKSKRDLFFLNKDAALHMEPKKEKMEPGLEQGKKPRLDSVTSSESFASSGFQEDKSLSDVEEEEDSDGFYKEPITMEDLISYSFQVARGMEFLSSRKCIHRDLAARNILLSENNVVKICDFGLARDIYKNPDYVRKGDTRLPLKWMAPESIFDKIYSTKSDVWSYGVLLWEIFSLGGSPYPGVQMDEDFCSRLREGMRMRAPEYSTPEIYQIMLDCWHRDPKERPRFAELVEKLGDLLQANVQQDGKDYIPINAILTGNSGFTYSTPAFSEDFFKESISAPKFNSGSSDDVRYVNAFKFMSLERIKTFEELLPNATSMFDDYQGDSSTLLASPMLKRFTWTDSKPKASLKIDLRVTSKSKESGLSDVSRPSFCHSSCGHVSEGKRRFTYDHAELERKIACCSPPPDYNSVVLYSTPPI

Prompt line: Output IC50 of COc1cc(Nc2ncnc(Nc3ccc(N)cc3)n2)cc(OC)c1OC [Compound 92]
Response line: 6.51 to 9.5 µM

---

Target: Zap-70 (Homo sapiens, UniProt P43403)
Construct: Kinases are expressed as either kinase domains or full length constructs; made in house
Sequence (P43403 1-619): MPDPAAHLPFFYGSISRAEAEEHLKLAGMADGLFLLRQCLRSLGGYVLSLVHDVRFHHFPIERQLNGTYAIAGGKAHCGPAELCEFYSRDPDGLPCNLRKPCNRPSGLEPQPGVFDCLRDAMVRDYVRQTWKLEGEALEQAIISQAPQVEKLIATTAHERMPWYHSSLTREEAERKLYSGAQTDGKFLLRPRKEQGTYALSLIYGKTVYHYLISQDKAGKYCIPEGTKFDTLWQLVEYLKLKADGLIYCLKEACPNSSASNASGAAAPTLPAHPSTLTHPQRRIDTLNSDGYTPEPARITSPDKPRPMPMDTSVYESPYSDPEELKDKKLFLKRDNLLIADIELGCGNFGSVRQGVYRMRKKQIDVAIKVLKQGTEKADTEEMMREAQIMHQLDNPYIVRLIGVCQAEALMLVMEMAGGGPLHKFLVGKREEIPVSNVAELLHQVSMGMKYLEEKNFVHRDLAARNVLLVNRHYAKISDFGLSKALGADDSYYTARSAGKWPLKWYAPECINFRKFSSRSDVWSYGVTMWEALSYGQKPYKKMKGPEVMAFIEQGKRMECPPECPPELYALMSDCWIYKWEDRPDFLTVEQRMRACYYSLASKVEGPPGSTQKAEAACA
Test: Kinase inhibition assay (33P transfer), Zap-70
Format: biochemical
Settings: Table 3; read-out: Zap-1
pIC50: −log10 of the molar value.
Reported pIC50 values are given for each entry in this list.

Reference set (8 entries):
NC(=O)c1cccc(Nc2ncnc(-c3cccs3)n2)c1 | < 4.82
COc1cc(Nc2ncnc(Nc3[nH]ncc3-c3ccccc3)n2)cc(OC)c1OC | < 4.97
COc1cc(Nc2ncnc(N3CCc4ccccc43)n2)cc(OC)c1OC | < 4.93
COc1cc(Nc2ncnc(-n3ccc4cc(O)ccc43)n2)cc(OC)c1OC | < 4.94
O=c1[nH]c2ccccc2n1-c1ncnc(Nc2ccc(Cl)cc2)n1 | < 4.88
FC(F)(F)c1ccc(Cl)c(Nc2ncnc(-n3cccc3)n2)c1 | < 4.88
COc1ccc(Nc2nc3ccccc3n2-c2ncnc(Nc3cc(OC)c(OC)c(OC)c3)n2)cc1 | < 5.05
Cc1cccc(Nc2ncnc(-n3cccc3)n2)c1C | < 4.77

Now for another entry.
Prompt line: Please report pIC50 for the following compound: COc1cc(Nc2ncnc(-n3c(N)nc4ccccc43)n2)cc(OC)c1OCCN1CCOCC1
Response line: < 5.04

---

pIC50: −log10 of the molar value.
// pIC50 collected for Hck-1 (Homo sapiens)

Here's what some known entries look like.
NC(=O)c1ccc(Nc2ncnc(Nc3cc(-c4ccco4)n[nH]3)n2)cc1 | < 4.91
COc1cc(Nc2ncnc(-n3ccc4cc(OCc5ccccc5)ccc43)n2)cc(OC)c1OC | < 5.03
COCCOc1ccc(Nc2ncnc(-n3c(N)nc4ccccc43)n2)cc1OC | < 4.96
COc1cc(Nc2ncnc(Nc3ccc4[nH]ncc4c3)n2)cc(OC)c1OC | < 4.94
COc1cc(Nc2ncnc(Nc3cc(F)ccc3F)n2)cc(OC)c1OC | < 4.94
COc1cc(Nc2ncnc(N(c3ccc(Cl)cc3)c3nc4ccccc4[nH]3)n2)cc(OC)c1OC | 5.05 to 5.16
COc1cc(Nc2ncnc(Nc3cc(C)c(O)cc3C)n2)cc(OC)c1OC | < 4.95
COc1ccc(Nc2ncnc(N(CC(=O)O)c3ccc4c(c3)OCO4)n2)cc1OC | < 4.98
COc1cc(Nc2ncnc(-n3c(N)nc4ccccc43)n2)cc(OCCN2CCOCC2)c1OC | < 5.04
COc1ccc(Nc2ncnc(Nc3ccc(C)c(O)c3)n2)cc1OC | < 4.90

Prompt line: State pIC50 on Hck-1 (Homo sapiens). Entry: COc1cc(Nc2ncnc(-n3c(N)nc4cc(Cl)ccc43)n2)cc(OC)c1OC
Sequence (P08631 whole entry): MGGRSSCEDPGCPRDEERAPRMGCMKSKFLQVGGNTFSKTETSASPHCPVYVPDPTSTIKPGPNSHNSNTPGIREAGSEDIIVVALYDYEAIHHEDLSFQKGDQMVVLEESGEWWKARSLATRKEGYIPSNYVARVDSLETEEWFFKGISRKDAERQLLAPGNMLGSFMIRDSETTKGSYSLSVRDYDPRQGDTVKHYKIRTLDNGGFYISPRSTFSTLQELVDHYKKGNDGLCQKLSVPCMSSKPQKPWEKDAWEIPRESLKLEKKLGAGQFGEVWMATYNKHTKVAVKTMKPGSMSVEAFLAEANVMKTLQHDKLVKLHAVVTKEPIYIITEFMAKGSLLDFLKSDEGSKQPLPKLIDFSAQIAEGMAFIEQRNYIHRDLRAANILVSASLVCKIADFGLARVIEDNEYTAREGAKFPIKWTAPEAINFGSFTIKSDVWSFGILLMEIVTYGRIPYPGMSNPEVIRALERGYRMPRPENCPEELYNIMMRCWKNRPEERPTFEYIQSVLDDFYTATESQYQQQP
Response line: < 4.98

Prompt line: Please indicate recorded pIC50 of C#Cc1cccc(Nc2ncnc(Nc3ccc(OC)c(OC)c3)n2)c1 measured with Hck-1 (Homo sapiens).
Response line: < 4.89

Prompt line: Look up Hck-1 (Homo sapiens) data: pIC50 of COc1cc(Nc2ncnc(Nc3ccc4ccccc4c3)n2)cc(OC)c1OC , then report it.
Response line: 4.95 to 5.06

Prompt line: System Hck-1 (Homo sapiens). Read-out pIC50. Item COc1cc(Nc2ncnc(-c3cccnc3NCc3ccc(F)cc3)n2)cc(OC)c1OC . Report value.
Response line: < 5.01

Prompt line: Give reported pIC50 for COc1cc(Nc2ncnc(Nc3ccc(Cl)c4ccccc34)n2)cc(OC)c1OC (Hck-1 (Homo sapiens))
Response line: < 4.99

Prompt line: Give pIC50 for COc1cc(Nc2ncnc(-n3c(Nc4ccc(F)cc4)nc4ccccc43)n2)cc(OC)c1OC tested on Hck-1 (Homo sapiens).
Response line: < 5.03

Prompt line: Fill: pIC50 (Hck-1 (Homo sapiens)) for this molecule COc1cc(Nc2ncnc(-n3c(Nc4ccccc4)nc4ccccc43)n2)cc(OC)c1OC
Response line: < 5.02

---

Biological target: c-Met (Homo sapiens, UniProt P08581)
Construct: Kinases are expressed as either kinase domains or full length constructs; made in house
Sequence (P08581 25-1390): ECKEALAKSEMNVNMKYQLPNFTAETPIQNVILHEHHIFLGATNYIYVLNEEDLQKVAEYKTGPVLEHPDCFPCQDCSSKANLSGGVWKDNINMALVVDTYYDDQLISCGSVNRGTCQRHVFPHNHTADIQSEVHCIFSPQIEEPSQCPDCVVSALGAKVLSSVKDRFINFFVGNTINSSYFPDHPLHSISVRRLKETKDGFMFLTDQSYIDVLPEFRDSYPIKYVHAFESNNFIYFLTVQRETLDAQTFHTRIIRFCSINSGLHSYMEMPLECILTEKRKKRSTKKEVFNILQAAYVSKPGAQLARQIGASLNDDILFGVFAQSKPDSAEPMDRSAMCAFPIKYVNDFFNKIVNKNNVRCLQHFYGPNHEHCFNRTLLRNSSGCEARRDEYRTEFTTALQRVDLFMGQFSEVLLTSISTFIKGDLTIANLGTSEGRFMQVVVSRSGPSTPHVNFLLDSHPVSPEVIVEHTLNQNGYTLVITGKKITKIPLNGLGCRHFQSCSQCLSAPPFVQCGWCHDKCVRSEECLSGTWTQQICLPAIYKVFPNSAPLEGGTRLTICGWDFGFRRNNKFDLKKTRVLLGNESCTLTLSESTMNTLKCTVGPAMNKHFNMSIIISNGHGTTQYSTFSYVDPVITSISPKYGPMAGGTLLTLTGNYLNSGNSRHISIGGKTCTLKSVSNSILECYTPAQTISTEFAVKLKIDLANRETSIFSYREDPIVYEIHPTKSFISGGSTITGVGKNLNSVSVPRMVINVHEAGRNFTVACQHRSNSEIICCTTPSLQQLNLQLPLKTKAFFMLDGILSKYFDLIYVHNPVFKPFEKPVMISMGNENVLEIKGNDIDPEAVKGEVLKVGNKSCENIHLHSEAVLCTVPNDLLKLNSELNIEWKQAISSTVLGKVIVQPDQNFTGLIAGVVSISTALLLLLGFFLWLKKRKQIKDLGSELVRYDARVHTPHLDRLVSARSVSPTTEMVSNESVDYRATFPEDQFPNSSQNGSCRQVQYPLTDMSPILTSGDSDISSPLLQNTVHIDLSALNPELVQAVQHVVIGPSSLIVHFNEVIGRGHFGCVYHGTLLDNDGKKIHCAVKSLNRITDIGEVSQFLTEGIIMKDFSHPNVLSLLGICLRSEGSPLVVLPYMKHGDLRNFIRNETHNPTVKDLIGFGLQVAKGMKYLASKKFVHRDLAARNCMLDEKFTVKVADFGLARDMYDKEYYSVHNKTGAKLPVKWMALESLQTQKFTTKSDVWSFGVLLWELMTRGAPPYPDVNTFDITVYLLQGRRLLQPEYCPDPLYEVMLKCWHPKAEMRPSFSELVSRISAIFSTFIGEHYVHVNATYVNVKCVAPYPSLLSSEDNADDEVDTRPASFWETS
Assay: Kinase inhibition assay (33P transfer), c-Met
Format: biochemical
Details: Table 2, kinase inhibition class; read-out: Met-1
measuredParameter: IC50

COc1cc(Nc2ncnc(-c3cccnc3NCc3ccccc3F)n2)cc(OC)c1OC | > 9.73 µM
O=c1[nH]c2ccccc2n1-c1ncnc(Nc2ccc(O)cc2)n1 | 7.49 to 10.9 µM
COc1cc(Nc2ncnc(N3CCN(C)CC3)n2)cc(OC)c1OC | > 12.5 µM
C#Cc1cccc(Nc2ncnc(Nc3cc(OC)c(OC)c(OC)c3)n2)c1 | 9.27 to 11.9 µM

Turning to the following molecule.
Prompt line: Please look at this molecule and report its IC50: Fc1ccc(Nc2ncnc(-n3cccc3)n2)cc1
Response line: > 17.6 µM

Values compiled from patent US7074789B2.
